From: patent US20240254129A1

Target: GST-tagged K-Ras mutant / His-tagged hSOS1 (Homo sapiens)
Assay: HTRF assay, K-Ras mutant / SOS1 interaction
Assay type: binding
Conditions: compound nos. 401-703; read-out: IC50 against mutant Kras

| compound | IC50 |
| --- | --- |
| CN(C)C1CN(c2nc(N3CC4CCC(C3)N4)c3cc(Cl)c(-c4ccc(F)c5sc(N)nc45)c(F)c3n2)C1 [Compound 503] | > 0.5 µM |
| CN1CCC[C@H]1COc1nc(N2CCCC(Cl)CC2)c2cc(Cl)c(-c3cccc4sc(N)nc34)c(F)c2n1 (stereo partly shown) [Compound 593] | < 0.5 µM |
| CN(C)CC1CN(c2nc(OCC34CCCN3CCC4)nc3c(F)c(-c4ccc(F)c5sc(N)nc45)c(Cl)cc23)CCCO1 (stereo not shown) [Compound 681] | < 0.5 µM |
| Fc1c(-c2ccc(F)c3[nH]nc(I)c23)c(Cl)cc2c(N3CC4CCC(C3)N4)nc(OC[C@@]34CCCN3C[C@H](F)C4)nc12 [Compound 671] | > 0.5 µM |
| Nc1ccc2cccc(-c3ccc4c(N5CC6CCC(C5)N6)nc(OCC56CCCN5CCC6)nc4c3F)c2n1 [Compound 596] | > 0.5 µM |
| Nc1nc2ccccc2n1-c1ccc2c(N3CC4CCC(C3)N4)nc(OCC34CCCN3CCC4)nc2c1F [Compound 525] | > 0.5 µM |
| N#CCCc1cc2c(N3CC4CCC(C3)N4)nc(OC[C@@]34CCCN3C[C@H](F)C4)nc2c(F)c1-c1cc(O)cc2ccccc12 [Compound 595] | < 0.5 µM |

* * *

Molecular target: wildtype Kras / hSOS1 (Homo sapiens)
Construct: made in house; host or cells: E. coli BL21 (DE3)
Assay: HTRF assay, wildtype Kras / SOS1 interaction
Assay type: binding
Conditions: compound nos. 401-703; read-out: IC50 against wildtype Kras
pIC50: −log10 of the molar value.
reportedProperty: pIC50

| compound | measValue |
| --- | --- |
| Nc1nc2c(-c3c(Cl)cc4c(N5CC6CCC(C5)N6)nc(OCC5(CN6CCCC6)CC5)nc4c3F)ccc(F)c2s1 | < 6.30 |
| CN1CCC[C@H]1COc1nc(N2CCC(O)C(F)CC2)c2cc(Cl)c(-c3cccc4sc(N)nc34)c(F)c2n1 (stereo partly shown) [Compound 675] | < 6.30 |
| CN1CCC[C@H]1COc1nc(N2CCCC(n3ccnc3)CC2)c2cc(Cl)c(-c3cccc4sc(N)nc34)c(F)c2n1 (stereo partly shown) [Compound 651] | < 6.30 |
| Cc1ccc2[nH]nc(C#N)c2c1-c1c(Cl)cc2c(N3CC4CCC(C3)N4)nc(OC[C@@]34CCCN3C[C@H](F)C4)nc2c1F | < 6.30 |
| Nc1nc2c(-c3c(Cl)cc4c(N5CC6CCC(C5)NC6)nc(OC[C@@]56CCCN5C[C@H](F)C6)nc4c3F)ccc(F)c2s1 (stereo partly shown) | < 6.30 |
| Oc1cc(-c2c(Cl)cc3c(N4CC5CCC(C4)N5)nc(OCC45CCCC4CCC5)nc3c2F)c2ccccc2c1 (stereo not shown) | > 6.30 |
| Nc1nc2c(-c3ccc4c(N5CC6CCC(C5)N6)nc(OC[C@@]56CCCN5C[C@H](F)C6)nc4c3F)cccc2o1 | < 6.30 |
| N#CCCc1cc2c(N3CC4CCC(C3)N4)nc(OC[C@@]34CCCN3C[C@H](F)C4)nc2c(F)c1-c1ccc(F)c2sc(N)c(C#N)c12 | > 6.30 |
| CN(C)CC1(COc2nc(N3CC4CCC(C3)N4)c3ccc(-c4cc(O)cc5ccccc45)c(F)c3n2)CC1 | < 6.30 |
| N#CCN1C2CCC1CN(c1nc(OC[C@@]34CCCN3C[C@H](F)C4)nc3c(F)c(-c4ccc(F)c5sc(N)c(C#N)c45)c(Cl)cc13)C2 | < 6.30 |
| Nc1nc2c(-c3c(Cl)cc4c(N5CCCC6(CCNC6)C5)nc(OC[C@@]56CCCN5C[C@H](F)C6)nc4c3F)ccc(F)c2s1 (stereo partly shown) | < 6.30 |
| CN1CCC[C@H]1COc1nc(N2CCCC(n3ccnc3)CC2)c2cc(Cl)c(-c3cccc4sc(N)nc34)c(F)c2n1 (stereo partly shown) [Compound 490] | > 6.30 |
| Nc1cc(-c2c(Cl)cc3c(N4CC5CCC(C4)N5)nc(OCC45CCCN4CCC5)nc3c2F)ccc1F | < 6.30 |

* * *

Quick reference: pIC50 of the listed items.
Target: wildtype Kras / hSOS1 (Homo sapiens, UniProt P01116)
Construct: made in house; host or cells: E. coli BL21 (DE3)
Sequence (P01116 1-188 isoform P01116-2): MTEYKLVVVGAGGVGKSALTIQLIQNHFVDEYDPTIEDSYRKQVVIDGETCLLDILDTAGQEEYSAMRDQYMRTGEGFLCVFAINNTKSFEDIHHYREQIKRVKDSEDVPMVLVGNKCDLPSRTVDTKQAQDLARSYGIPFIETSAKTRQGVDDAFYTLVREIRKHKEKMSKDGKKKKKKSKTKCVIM
Assay: HTRF assay, wildtype Kras / SOS1 interaction
Assay type: binding
Settings: compound nos. 401-703; read-out: IC50 against wildtype Kras
pIC50: −log10 of the molar value.
reportedProperty: pIC50

| molecule | reportedProperty | measValue |
| --- | --- | --- |
| CCCC1CCCN(c2nc(OC[C@@H]3CCCN3C)nc3c(F)c(-c4cccc5sc(N)nc45)c(Cl)cc23)CC1 (stereo partly shown) | pIC50 | < 6.30 |
| Fc1c(-c2ccc(F)c3[nH]nc(I)c23)c(Cl)cc2c(N3CC4CCC(C3)N4)nc(OC[C@@]34CCCN3C[C@H](F)C4)nc12 | pIC50 | < 6.30 |
| N#CCCc1cc2c(N3CC4CCC(C3)N4)nc(OC[C@@]34CCCN3C[C@H](F)C4)nc2c(F)c1-c1ccc(F)c2sc(N)nc12 | pIC50 | > 6.30 |
| Nc1ccc(-c2ccc(O)cc2-c2c(Cl)cc3c(N4CC5CCC(C4)N5)nc(OCC45CCCN4CCC5)nc3c2F)cc1 | pIC50 | > 6.30 |
| N#Cc1ccc2ccccc2c1-c1c(Cl)cc2c(N3CC4CCC(C3)N4)nc(OC[C@@]34CCCN3C[C@H](F)C4)nc2c1F | pIC50 | < 6.30 |
| Fc1c(-c2cccc3cn[nH]c23)ccc2c(N3CC4CCC(C3)N4)nc(OC[C@@]34CCCN3C[C@H](F)C4)nc12 | pIC50 | < 6.30 |
| Nc1c(-c2c(Cl)cc3c(N4CC5CCC(C4)N5)nc(OCC45CCCN4CCC5)nc3c2F)cccc1C(F)(F)F | pIC50 | < 6.30 |

* * *

Molecular target: GST-tagged K-Ras mutant / His-tagged hSOS1 (Homo sapiens, UniProt P01116)
Sequence (P01116 whole entry G12D, form open): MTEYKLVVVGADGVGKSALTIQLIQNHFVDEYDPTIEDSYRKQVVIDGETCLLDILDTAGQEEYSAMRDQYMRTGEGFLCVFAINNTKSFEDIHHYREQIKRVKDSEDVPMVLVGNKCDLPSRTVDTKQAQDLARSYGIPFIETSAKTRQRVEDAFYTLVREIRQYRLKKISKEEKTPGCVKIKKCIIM
Experiment: HTRF assay, K-Ras mutant / SOS1 interaction
Type: binding
Settings: compound nos. 401-703; read-out: IC50 against mutant Kras

| compound | subjectOfTest | IC50 |
| --- | --- | --- |
| CN(C)CC1(COc2nc(N3CC4CCC(C3)N4)c3ccc(-c4ccc(F)c5sc(N)nc45)c(F)c3n2)CC1 | GST-tagged K-Ras mutant / His-tagged hSOS1 (Homo sapiens, UniProt P01116) | > 500 nM |
| Nc1nc2c(-c3c(Cl)cc4c(N5CCCS(=O)(=O)CC5)nc(OC[C@@]56CCCN5C[C@H](F)C6)nc4c3F)ccc(F)c2s1 | GST-tagged K-Ras mutant / His-tagged hSOS1 (Homo sapiens, UniProt P01116) | < 500 nM |
| N#Cc1ccc2ccccc2c1-c1ccc2c(N3CC4CCC(C3)N4)nc(OC[C@@]34CCCN3C[C@H](F)C4)nc2c1F | GST-tagged K-Ras mutant / His-tagged hSOS1 (Homo sapiens, UniProt P01116) | > 500 nM |
| Nc1nc2c(-c3cc4nc(OCC56CCCN5CCC6)nc(N5CC6CCC(C5)N6)c4cc3Cl)ccc(F)c2s1 | GST-tagged K-Ras mutant / His-tagged hSOS1 (Homo sapiens, UniProt P01116) | < 500 nM |
| N#Cc1c(N)sc2c(F)ccc(-c3c(Cl)cc4c(N5CCNCC(F)(F)C5)nc(OC[C@@]56CCCN5C[C@H](F)C6)nc4c3F)c12 | GST-tagged K-Ras mutant / His-tagged hSOS1 (Homo sapiens, UniProt P01116) | > 500 nM |
| Nc1nc2c(-c3c(Cl)cc4c(N5CC6CCC(C5)N6)nc(OCC56CCCC5CCC6)nc4c3F)cccc2s1 (centres unmarked) | GST-tagged K-Ras mutant / His-tagged hSOS1 (Homo sapiens, UniProt P01116) | > 500 nM |
| CN1CCC[C@H]1COc1nc(N2CCNCC(F)(F)C2)c2cc(Cl)c(-c3cccc4cnc(N)nc34)c(F)c2n1 | GST-tagged K-Ras mutant / His-tagged hSOS1 (Homo sapiens, UniProt P01116) | > 500 nM |
| CN1CCC[C@H]1COc1nc(N2CCC(F)C(F)CC2)c2cc(Cl)c(-c3cccc4sc(N)nc34)c(F)c2n1 (some centres unmarked) | GST-tagged K-Ras mutant / His-tagged hSOS1 (Homo sapiens, UniProt P01116) | < 500 nM |
| Cc1c(N)sc2cccc(-c3ccc4c(N5CC6CCC(C5)N6)nc(OC[C@@]56CCCN5C[C@H](F)C6)nc4c3F)c12 | GST-tagged K-Ras mutant / His-tagged hSOS1 (Homo sapiens, UniProt P01116) | > 500 nM |
| Cc1ccc2cnn(C)c2c1-c1c(Cl)cc2c(N3CC4CCC(C3)N4)nc(OCC3(CN4CCCC4)CC3)nc2c1F | GST-tagged K-Ras mutant / His-tagged hSOS1 (Homo sapiens, UniProt P01116) | > 500 nM |
| Cc1ccc2cnn(CC#N)c2c1-c1c(Cl)cc2c(N3CC4CCC(C3)N4)nc(OC[C@@]34CCCN3C[C@H](F)C4)nc2c1F | GST-tagged K-Ras mutant / His-tagged hSOS1 (Homo sapiens, UniProt P01116) | > 500 nM |
| Nc1nc2c(-c3c(Cl)cc4c(N5CCC[C@@H](O)CC5)nc(OC[C@@]56CCCN5C[C@H](F)C6)nc4c3F)ccc(F)c2s1 | GST-tagged K-Ras mutant / His-tagged hSOS1 (Homo sapiens, UniProt P01116) | < 500 nM |
| CC1CCCN(c2nc(OC[C@@H]3CCCN3C)nc3c(F)c(-c4cccc5sc(N)nc45)c(Cl)cc23)CC1 (some centres unmarked) | GST-tagged K-Ras mutant / His-tagged hSOS1 (Homo sapiens, UniProt P01116) | > 500 nM |
| Cc1ccc2sc(N)nc2c1-c1c(Cl)cc2c(N3CCNCC(F)(F)C3)nc(OCC34CCCN3CCC4)nc2c1O | GST-tagged K-Ras mutant / His-tagged hSOS1 (Homo sapiens, UniProt P01116) | > 500 nM |
